# Study system: CDK2 (Homo sapiens)
# Construct: endogenous in cells; host or cells: MDA-MB-231
# Assay explanation: CDK protein degradation activity (Western blotting), CDK2
# Assay type: cell-based
# Condition set: MDA-MB-231 cells, 1 μM, 16 hours, Western blot
Friendly reminder: Enzyme degradation CDK2 (% remaining) @ 1 μM below 50% is class 1, at or above is class 0.

* COc1ccc(C(=O)N2CC(CN3CCC4(CC3)CC(N3CCN(c5ccc(Nc6ncnc7c6ncn7[C@H]6C[C@@H](NC(=O)Cc7ccccc7)C6)cc5)CC3)C4)C2)cc1N1CCC(=O)NC1=O | class 1
* O=C1CC[C@H](N2C(=O)c3ccc(N4CC(CN5CCC(CCN6CCN(c7ccc(Nc8ncnc9c8ncn9[C@H]8C[C@@H](NC(=O)Cc9ccccc9)C8)cc7)CC6)CC5)C4)cc3C2=O)C(=O)N1 | class 1

Query :: I wonder whether O=C1CC[C@H](N2C(=O)c3cccc(N4CCC(CN5CCN(c6ccc(Nc7ncnc8c7ncn8C7CC(NC(=O)Cc8ccccc8)C7)cc6)CC5)CC4)c3C2=O)C(=O)N1 (stereo partly shown) has Enzyme degradation CDK2 (% remaining) @ 1 μM below 50%. Can you tell?
Result :: class 1

Query :: For O=C1CC[C@H](n2nnc3ccc(N4CCN(CC5CCN(c6ccc(Nc7ncnc8c7ncn8C7CC(NC(=O)Cc8ccccc8)C7)cc6)CC5)CC4)cc3c2=O)C(=O)N1 (stereo partly shown) , is the recorded Enzyme degradation CDK2 (% remaining) @ 1 μM below the cut-off of 50%?
Result :: class 1

Query :: Just wondering, is Enzyme degradation CDK2 (% remaining) @ 1 μM of COc1ccc(C(=O)N2CCC(CCCN3CCN(c4ccc(Nc5ncnc6c5ncn6[C@H]5C[C@@H](NC(=O)Cc6ccccc6)C5)cc4)CC3)CC2)cc1N1CCC(=O)NC1=O below 50%?
Result :: class 1

Query :: Dear colleague, could you confirm whether Enzyme degradation CDK2 (% remaining) @ 1 μM of O=C1CC[C@H](N2C(=O)c3ccc(N4CCN(CC=CCN5CCC6(CC5)CC(N5CCN(c7ccc(Nc8ncnc9c8ncn9C8CC(NC(=O)Cc9ccccc9)C8)cc7)CC5)C6)CC4)cc3C2=O)C(=O)N1 (stereo partly shown) falls below 50%? Thanks.
Result :: class 0

====

# Study system: CDK2 (Homo sapiens)
# Construct: endogenous in cells; host or cells: MDA-MB-231
# Assay explanation: CDK protein degradation activity (Western blotting), CDK2
# Format: cell-based
# Condition set: MDA-MB-231 cells, 1 μM, 16 hours, Western blot
Would you kindly list Enzyme degradation CDK2 (% remaining) @ 1 μM for each of these compounds?
Answers are plain numbers, in %.

Reference set, count: 5
- O=C1CC[C@@H](c2cccc(OCC(=O)N3CC(N4CCC5(CC4)CC(N4CCN(c6ccc(Nc7ncnc8c7ncn8[C@H]7C[C@@H](NC(=O)Cc8ccccc8)C7)cc6)CC4)C5)C3)c2)C(=O)N1 [Compound 274]: 20
- O=C1CC[C@H](N2C(=O)c3cc(F)c(N4CCN(CCCC5CCN(c6ccc(Nc7ncnc8c7ncn8[C@H]7C[C@@H](NC(=O)Cc8ccccc8)C7)cc6)CC5)CC4)cc3C2=O)C(=O)N1 [Compound 348]: 10
- O=C1CC[C@H](N2C(=O)c3ccc(N4CCC(CN5CCN(c6ccc(Nc7ncnc8c7ncn8[C@H]7C[C@@H](NC(=O)Cc8ccccc8)C7)cc6)CC5)CC4)cc3C2=O)C(=O)N1 [Compound 179]: 0
- Cc1cccc(C(=O)NC2CC(n3cnc4c(Nc5ccc(N6CCN(CC7CCN(C(=O)CNc8cccc9c8C(=O)N([C@H]8CCC(=O)NC8=O)C9=O)CC7)CC6)cc5)ncnc43)C2)n1 (stereo partly shown) [Compound 93]: 10
- O=C1CC[C@H](N2C(=O)c3cccc(N4CCC(CN5CCC(CNc6ncnc7c6ncn7C6CC(NC(=O)c7c(Cl)cccc7Cl)C6)CC5)CC4)c3C2=O)C(=O)N1 (stereo partly shown) [Compound 172]: 20

// each compound listed below needs its Enzyme degradation CDK2 (% remaining) @ 1 μM
1. O=C1CCC(N2C(=O)c3ccc(N4CCN(CCCN5CCN(c6ccc(Nc7ncnc8c7ncn8[C@H]7C[C@@H](NC(=O)Cc8ccccc8)C7)cc6)CC5)CC4)cc3C2=O)C(=O)N1 (stereo partly shown) [Compound 239]
2. O=C1CC[C@@H](c2cccc(OCC(=O)N3CCN(CCCN4CCN(c5ccc(Nc6ncnc7c6ncn7C6CC(NC(=O)Cc7ccccc7)C6)cc5)CC4)CC3)c2)C(=O)N1 (stereo partly shown) [Compound 237]
3. O=C1CCC(N2C(=O)c3cc(F)c(N4CCC(CN5CCC(CCNc6ncnc7c6ncn7[C@H]6C[C@@H](NC(=O)Cc7ccccc7)C6)CC5)CC4)cc3C2=O)C(=O)N1 (stereo partly shown) [Compound 409]

Result ::
20
0
40

Data provenance is patent US20260125382A1.
